PBM binding z-score values by entry
System: VDR:RXRa (NR concentration 270 nM, RXRa partner concentration 90 nM)
Experiment: PBM binding z-score (relative to random genomic background probes); higher = stronger binding; sequences stand for … in GC…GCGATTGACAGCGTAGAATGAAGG
PROPERTY_NAME: PBM binding z-score

# SEQUENCE_STRING, STUDY_SYSTEM, PROPERTY_NAME, RESULT
records = [
    ("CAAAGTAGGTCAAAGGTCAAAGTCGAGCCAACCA", "VDR:RXRa (NR concentration 270 nM, RXRa partner concentration 90 nM)", "PBM binding z-score", 6.63),
    ("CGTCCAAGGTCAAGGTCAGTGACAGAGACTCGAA", "VDR:RXRa (NR concentration 270 nM, RXRa partner concentration 90 nM)", "PBM binding z-score", 4.83),
    ("GCTATTAGTTGAAAGGGCAACGGAATGATTCTCG", "VDR:RXRa (NR concentration 270 nM, RXRa partner concentration 90 nM)", "PBM binding z-score", 0.383),
    ("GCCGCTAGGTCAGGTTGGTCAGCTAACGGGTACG", "VDR:RXRa (NR concentration 270 nM, RXRa partner concentration 90 nM)", "PBM binding z-score", 0.54),
    ("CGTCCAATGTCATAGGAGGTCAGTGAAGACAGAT", "VDR:RXRa (NR concentration 270 nM, RXRa partner concentration 90 nM)", "PBM binding z-score", 3.45),
    ("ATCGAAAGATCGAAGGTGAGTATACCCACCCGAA", "VDR:RXRa (NR concentration 270 nM, RXRa partner concentration 90 nM)", "PBM binding z-score", 0.0219),
    ("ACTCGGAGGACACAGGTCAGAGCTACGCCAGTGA", "VDR:RXRa (NR concentration 270 nM, RXRa partner concentration 90 nM)", "PBM binding z-score", 0.834),
    ("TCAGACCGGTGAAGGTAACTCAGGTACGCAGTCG", "VDR:RXRa (NR concentration 270 nM, RXRa partner concentration 90 nM)", "PBM binding z-score", 0.501),
    ("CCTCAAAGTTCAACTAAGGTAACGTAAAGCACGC", "VDR:RXRa (NR concentration 270 nM, RXRa partner concentration 90 nM)", "PBM binding z-score", 4.88),
]

Where these numbers come from: the supplement of paper PMC6555819
